# System: soybean plant
# ASSAY_NOTES: Test Example 4: phytotoxicity to upland crop plants, treatment after emergence
# Type: in vivo
# EXPERIMENTAL_CONTEXT: dosage 5 kg/ha, sprayed after emergence, judged 14 days after treatment

[
  {
    "COMPOUND": "CCCNC(=O)c1nc2c(cc1C(=O)Nc1c(CC)ccc(Cl)c1CC)CSCC2 [compound 558]",
    "Phytotoxicity So": "5 (Crop-killing rate is 100%.)"
  },
  {
    "COMPOUND": "CCCNC(=O)c1nc2ccccc2cc1C(=O)Nc1c(CC)ccc(Cl)c1CC [359-3]",
    "Phytotoxicity So": "3 (Crop-killing rate is 70-89%.)"
  },
  {
    "COMPOUND": "CCCNC(=O)c1nc2c(cc1C(=O)Nc1c(CC)ccc(Cl)c1CC)ncn2C [compound 1269]",
    "Phytotoxicity So": "4 (Crop-killing rate is 90-99%.)"
  },
  {
    "COMPOUND": "Cc1c(Cl)cccc1NC(=O)c1cc2ccoc2nc1C(=O)NC1CCCC1 [compound 796]",
    "Phytotoxicity So": "4 (Crop-killing rate is 90-99%.)"
  },
  {
    "COMPOUND": "CCc1ccc(Cl)c(CC)c1NC(=O)c1cc2cc(OC)ccc2nc1C(=O)NOC(C)C [compound 291]",
    "Phytotoxicity So": "2 (Crop-killing rate is 40-69%.)"
  },
  {
    "COMPOUND": "CCCNC(=O)c1nc2ncccc2cc1C(=O)Nc1cccc(Cl)c1C [compound 375]",
    "Phytotoxicity So": "4 (Crop-killing rate is 90-99%.)"
  },
  {
    "COMPOUND": "CCCNC(=O)c1nc2ccn(OC)c2cc1C(=O)Nc1c(CC)ccc(Cl)c1CC [compound 895]",
    "Phytotoxicity So": "4 (Crop-killing rate is 90-99%.)"
  },
  {
    "COMPOUND": "CCCNC(=O)c1nc2c(cc1C(=O)Nc1c(CC)ccc(Cl)c1CC)CCOC2 [compound 438]",
    "Phytotoxicity So": "4 (Crop-killing rate is 90-99%.)"
  },
  {
    "COMPOUND": "CCCNC(=O)c1nc2c(cc1C(=O)Nc1c(CC)ccc(Cl)c1CC)nc(C)n2C [compound 1294]",
    "Phytotoxicity So": "4 (Crop-killing rate is 90-99%.)"
  },
  {
    "COMPOUND": "CCCNC(=O)c1nc2ccccc2nc1C(=O)Nc1c(CC)ccc(Cl)c1CC [compound 1306]",
    "Phytotoxicity So": "5 (Crop-killing rate is 100%.)"
  },
  {
    "COMPOUND": "CCc1ccc(Cl)c(CC)c1NC(=O)c1cc2ccccc2nc1C(=O)NC(C)(C)C [359-4]",
    "Phytotoxicity So": "4 (Crop-killing rate is 90-99%.)"
  },
  {
    "COMPOUND": "CCCNC(=O)c1nc2ccoc2cc1C(=O)Nc1c(CC)ccc(Cl)c1CC [compound 847]",
    "Phytotoxicity So": "4 (Crop-killing rate is 90-99%.)"
  },
  {
    "COMPOUND": "CCCNC(=O)c1nc2c(C)nn(C)c2cc1C(=O)Nc1c(CC)ccc(Cl)c1CC [compound 1197]",
    "Phytotoxicity So": "5 (Crop-killing rate is 100%.)"
  },
  {
    "COMPOUND": "CCCNC(=O)c1nc2c(cc1C(=O)Nc1c(CC)ccc(Cl)c1CC)CCO2 [compound 919]",
    "Phytotoxicity So": "5 (Crop-killing rate is 100%.)"
  },
  {
    "COMPOUND": "Cc1c(Cl)cccc1NC(=O)c1cc2c(C)noc2nc1C(=O)NC1CCCC1 [compound 1085]",
    "Phytotoxicity So": "4 (Crop-killing rate is 90-99%.)"
  },
  {
    "COMPOUND": "CCCNC(=O)c1nc2cnn(C)c2cc1C(=O)Nc1c(CC)ccc(Cl)c1CC [compound 1173]",
    "Phytotoxicity So": "5 (Crop-killing rate is 100%.)"
  }
]

Measured values drawn from patent US6444617B1 for this set.
